molecular target: C-C chemokine receptor type 5 (Homo sapiens)
Sequence (P51681 whole entry): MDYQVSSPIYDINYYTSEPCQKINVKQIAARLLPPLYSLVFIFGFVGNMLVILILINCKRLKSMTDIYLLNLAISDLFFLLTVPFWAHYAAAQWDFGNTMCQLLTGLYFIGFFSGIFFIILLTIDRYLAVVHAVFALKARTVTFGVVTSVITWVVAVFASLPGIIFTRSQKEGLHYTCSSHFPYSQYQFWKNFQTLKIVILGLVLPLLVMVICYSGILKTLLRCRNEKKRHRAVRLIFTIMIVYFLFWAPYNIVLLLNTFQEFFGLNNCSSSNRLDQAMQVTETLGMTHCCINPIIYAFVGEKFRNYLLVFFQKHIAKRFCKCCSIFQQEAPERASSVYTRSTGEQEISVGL
pIC50: −log10 of the molar value.
ASSAY ENDPOINT: pIC50

>>> df
                  compound_structure_string  assay_endpoint  result
0  C1=C(CS/C(=N\C2CCCCC2)NC2CCCCC2)N2CCN=C2S1           pIC50  < 5.52

---

test: Tmax in Lewis rat at 10 mg/kg, po; type: ADME, organism-based; parameters: dose 10 mg/kg, route oral; conditions: in vivo
ASSAY ENDPOINT: Tmax

                  compound_structure_string  result
0  C1=C(CS/C(=N\C2CCCCC2)NC2CCCCC2)N2CCN=C2S1  30 min
1  CC1(C)CN2C(CS/C(=N\C3CCCCC3)NC3CCCCC3)=CSC2=N1  30 min

---

target: C-X-C chemokine receptor type 4 (Homo sapiens, UniProt P61073); experiment: Activity at CXCR4 in human CEM cells assessed as inhibition of CXCL12-induced calcium mobilization; format: functional, cell-based, CCRF-CEM
Sequence (P61073 whole entry): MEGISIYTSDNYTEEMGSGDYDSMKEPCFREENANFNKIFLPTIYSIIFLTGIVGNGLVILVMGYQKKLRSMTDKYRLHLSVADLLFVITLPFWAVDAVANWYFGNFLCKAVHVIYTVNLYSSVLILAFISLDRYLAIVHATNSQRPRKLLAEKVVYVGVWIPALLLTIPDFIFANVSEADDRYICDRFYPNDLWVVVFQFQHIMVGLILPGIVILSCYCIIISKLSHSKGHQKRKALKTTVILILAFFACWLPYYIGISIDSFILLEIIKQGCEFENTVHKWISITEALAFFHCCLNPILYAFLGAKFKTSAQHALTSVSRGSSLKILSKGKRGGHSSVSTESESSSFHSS
pIC50: −log10 of the molar value.
Classify as follows. Reported pIC50 greater than or equal to 8: yes (1). Reported pIC50 below: no (0).

In [3]: df
Out[3]:
                  compound_structure_string  class_label
0      CCCCCCNC(=NC1CCCCC1)SCC1=CSC2=NCCN12       no (0)
1  C1=C(CS/C(=N\C2CCCCC2)NC23CC4CC(CC(C4)C2)C3)N2CCN=C2S1       no (0)
2   C1=C(CSC(=NC2CCCCC2)NC2CCCC2)N2CCN=C2S1       no (0)
3  C1=C(CS/C(=N\C2CCCCC2)NC2CCCCC2)N2CCCN=C2S1       no (0)
4      c1ccc(CS/C(=N\C2CCCCC2)NC2CCCCC2)cc1       no (0)
5  C1=C(CS/C(=N\C2CCCCCC2)NC2CCCCCC2)N2CCN=C2S1      yes (1)

---

biological target: C-X-C chemokine receptor type 4 (Homo sapiens, UniProt P61073); assay: Activity at CXCR4 in human CEM cells assessed as inhibition of CXCL12-induced calcium mobilization; assay type: functional, cell-based, CCRF-CEM
pIC50: −log10 of the molar value.
Listed next: entries and their corresponding pIC50.
ASSAY ENDPOINT: pIC50

>>> print(df.to_string())
                  compound_structure_string                              study_system  assay_endpoint  result
0  C1=C(CS/C(=N\C2CCCCC2)NC2CCCCC2)N2CCN=C2S1  C-X-C chemokine receptor type 4 (Homo sapiens, UniProt P61073)           pIC50    7.96
1  CC1(C)CN2C(CS/C(=N\C3CCCCCC3)NC3CCCCCC3)=CSC2=N1  C-X-C chemokine receptor type 4 (Homo sapiens, UniProt P61073)           pIC50    8.68
2  C1=C(CS/C(=N\C2CCCCC2)Nc2ccccc2)N2CCN=C2S1  C-X-C chemokine receptor type 4 (Homo sapiens, UniProt P61073)           pIC50    5.28
3  C1=C(CS/C(=N\C2CCCC2)NC2CCCC2)N2CCN=C2S1  C-X-C chemokine receptor type 4 (Homo sapiens, UniProt P61073)           pIC50    6.31
